Values were extracted from patent US5541174A.

system: adjuvant-induced arthritic pain in rats; assay: Adjuvant-induced arthritic pain; assay type: in vivo, male Sprague-Dawley rats; settings: oral, PG-PVA in saline
Recorded measurements of ED50, one per entry

>  <Compound>
COc1ccc2c(c1)c(CC(=O)O)c(C)n2C(=O)c1ccc(Cl)cc1 [Indomethacin, reference compound]

>  <Censor Symbol>
=

>  <ED50, mmol/kg>
0.02

$$$$
>  <Compound>
CC(C)c1cc(C(=O)O)c(O)c(C(C)C)c1 [3,5-Dips, 3,5-diisopropylsalicylic acid, reference compound]

>  <Censor Symbol>
>

>  <ED50, mmol/kg>
0.90

$$$$
>  <Compound>
CC(=O)Oc1ccccc1C(=O)O [Aspirin, acetylsalicylic acid, reference compound]

>  <Censor Symbol>
=

>  <ED50, mmol/kg>
1.41

$$$$
>  <Compound>
O=C(O)c1ccccc1O [Salicylic acid, reference compound]

>  <Censor Symbol>
=

>  <ED50, mmol/kg>
1.83

$$$$

----------
test system: adjuvant-induced arthritic pain in rats; experiment: Adjuvant-induced arthritic pain; assay type: in vivo, male Sprague-Dawley rats; conditions: oral, PG-PVA in saline
Recorded measurements of ED50, one per entry
Readout: ED50

>  <Compound>
CC(C)c1cc(C(=O)[O-])c(O)c(C(C)C)c1.CC(C)c1cc(C(=O)[O-])c(O)c(C(C)C)c1.[Cu+2]

>  <Readout>
ED50

>  <Test Value>
> 0.40 mmol/kg

$$$$
>  <Compound>
O=C(O)c1cccnc1Nc1cccc(C(F)(F)F)c1 [Niflumic acid, reference compound]

>  <Readout>
ED50

>  <Test Value>
0.48 mmol/kg

$$$$
>  <Compound>
Nc1ccccc1C(=O)[O-].Nc1ccccc1C(=O)[O-].[Cu+2] [Cu(II)(anthranilate)2, Bisanthranilato(O,N)copper(II)]

>  <Readout>
ED50

>  <Test Value>
> 0.60 mmol/kg

$$$$
>  <Compound>
[Cl][Cu][Cl] [Cu(II)(chloride)2, reference compound]

>  <Readout>
ED50

>  <Test Value>
> 2.24 mmol/kg

$$$$
>  <Compound>
Nc1ccccc1C(=O)O [Anthranilic acid, reference compound]

>  <Readout>
ED50

>  <Test Value>
> 1.44 mmol/kg

$$$$
>  <Compound>
COc1ccc2c(c1)c(CC(=O)[O-])c(C)n2C(=O)c1ccc(Cl)cc1.COc1ccc2c(c1)c(CC(=O)[O-])c(C)n2C(=O)c1ccc(Cl)cc1.COc1ccc2c(c1)c(CC(=O)[O-])c(C)n2C(=O)c1ccc(Cl)cc1.COc1ccc2c(c1)c(CC(=O)[O-])c(C)n2C(=O)c1ccc(Cl)cc1.[Cu+2].[Cu+2]

>  <Readout>
ED50

>  <Test Value>
0.002 mmol/kg

$$$$

----------
system: acetic acid induced writhing in mice; experiment: Acetic acid-induced writhing test; format: in vivo, ICR male mice; settings: s.c., PG-PVA in saline

>  <Compound>
COc1ccc2c(c1)c(CC(=O)O)c(C)n2C(=O)c1ccc(Cl)cc1 [Indomethacin, reference compound]

>  <ED50, mmol/kg>
0.02

$$$$
>  <Compound>
O=C(O)c1ccccc1O [Salicylic acid, reference compound]

>  <ED50, mmol/kg>
1.02

$$$$
>  <Compound>
CC(C)c1cc(C(=O)[O-])c(O)c(C(C)C)c1.CC(C)c1cc(C(=O)[O-])c(O)c(C(C)C)c1.[Cu+2]

>  <ED50, mmol/kg>
0.20

$$$$
>  <Compound>
Nc1ccccc1C(=O)[O-].Nc1ccccc1C(=O)[O-].[Cu+2] [Cu(II)(anthranilate)2, Bisanthranilato(O,N)copper(II)]

>  <ED50, mmol/kg>
0.22

$$$$
>  <Compound>
CC(C)c1cc(C(=O)O)c(O)c(C(C)C)c1 [3,5-Dips, 3,5-diisopropylsalicylic acid, reference compound]

>  <ED50, mmol/kg>
0.23

$$$$
>  <Compound>
CC(=O)Oc1ccccc1C(=O)O [Aspirin, acetylsalicylic acid, reference compound]

>  <ED50, mmol/kg>
0.52

$$$$
>  <Compound>
O=C(O)c1cccnc1Nc1cccc(C(F)(F)F)c1 [Niflumic acid, reference compound]

>  <ED50, mmol/kg>
0.10

$$$$
>  <Compound>
Nc1ccccc1C(=O)O [Anthranilic acid, reference compound]

>  <ED50, mmol/kg>
0.64

$$$$
>  <Compound>
[Cl][Cu][Cl] [Cu(II)(chloride)2, reference compound]

>  <ED50, mmol/kg>
0.60

$$$$
